target of assay: CYP3A4 (Homo sapiens (Human))
Sequence (P08684 whole entry): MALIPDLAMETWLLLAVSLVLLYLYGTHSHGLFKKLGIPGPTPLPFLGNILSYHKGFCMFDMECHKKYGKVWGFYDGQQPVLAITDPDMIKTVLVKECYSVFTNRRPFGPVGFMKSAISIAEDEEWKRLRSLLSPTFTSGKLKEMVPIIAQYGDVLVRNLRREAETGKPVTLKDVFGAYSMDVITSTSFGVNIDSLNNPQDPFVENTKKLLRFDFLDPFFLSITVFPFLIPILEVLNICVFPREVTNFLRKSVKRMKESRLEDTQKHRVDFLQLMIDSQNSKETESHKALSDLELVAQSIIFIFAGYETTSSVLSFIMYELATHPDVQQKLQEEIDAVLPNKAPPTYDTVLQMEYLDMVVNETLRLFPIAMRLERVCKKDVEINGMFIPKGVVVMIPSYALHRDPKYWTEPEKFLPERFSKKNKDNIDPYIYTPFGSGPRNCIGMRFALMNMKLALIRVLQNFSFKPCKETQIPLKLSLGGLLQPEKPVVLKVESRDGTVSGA
protocol text: CYP450 inhibition in human liver microsomes: CYP3A4;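 note: incubation at 37 °C started by adding 1 mM NADPH, with formation of the probe metabolite measured via LC-MS/MS or fluorescent detection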
condition notes: CYP3A4 IC50 Midazolam, probe substrate midazolam
pIC50: −log10 of the molar value.

| compound | pIC50 |
| --- | --- |
| COCCOCCOCCOC(=O)NC(C(=O)NC(Cc1ccccc1)C(O)CN(Cc1ccc(-c2ccccn2)cc1)NC(=O)C(NC(=O)OC)C(C)(C)C)C(C)(C)C (stereo not shown) [mono-mPEG3-Atazanavir] | 5.55 |

----------
Reported Leucine Incorporation (CEM-SS) TC50 by item:
Test system: CEM-SS cells
protocol text: CEM-SS macromolecule synthesis (tritiated precursor incorporation)
Type: cell-based
condition notes: protein synthesis

| molecule | reported relation | Leucine Incorporation (CEM-SS) TC50 [µM] |
| --- | --- | --- |
| COC(=O)N[C@H](C(=O)N[C@@H](Cc1ccccc1)[C@@H](O)CN(Cc1ccc(-c2ccccn2)cc1)NC(=O)[C@@H](NC(=O)OC)C(C)(C)C)C(C)(C)C [Atazanavir, reference compound] | = | 259.6 |
| COCCOCCOCCOc1ccc(C[C@H](NC(=O)O[C@H]2CO[C@H]3OCC[C@H]32)C(O)CN(CC(C)C)S(=O)(=O)c2ccc(N)cc2)cc1 (some centres unmarked) | > | 400 |
| CC(C)CN(C[C@@H](O)[C@H](Cc1ccccc1)NC(=O)O[C@H]1CO[C@H]2OCC[C@H]21)S(=O)(=O)c1ccc(N)cc1 [Darunavir, reference compound] | = | 285.8 |
| COCCOCCOCCOC(=O)NC(C(=O)NC(Cc1ccccc1)C(O)CN(Cc1ccc(-c2ccccn2)cc1)NC(=O)C(NC(=O)OC)C(C)(C)C)C(C)(C)C (centres unmarked) | > | 400 |
| COCCOCCOCCOCCOCCOc1ccc(C[C@H](NC(=O)O[C@H]2CO[C@H]3OCC[C@H]32)C(O)CN(CC(C)C)S(=O)(=O)c2ccc(N)cc2)cc1 (some centres unmarked) | > | 400 |

----------
Tested on: rat plasma proteins
protocol text: Plasma protein binding by equilibrium dialysis, rat plasma
Type: in vitro ADME
condition notes: fraction unbound
endpoint: Rat Plasma Protein Binding Fu ± SD

| molecule | observed value |
| --- | --- |
| COCCOCCOCCOCCOCCOCCOCCOC(=O)NC(C(=O)NC(Cc1ccccc1)C(O)CN(Cc1ccc(-c2ccccn2)cc1)NC(=O)C(NC(=O)OC)C(C)(C)C)C(C)(C)C (stereo not shown) | 0.255 |
| COCCOC(=O)NC(C(=O)NC(Cc1ccccc1)C(O)CN(Cc1ccc(-c2ccccn2)cc1)NC(=O)C(NC(=O)OC)C(C)(C)C)C(C)(C)C (stereo not shown) | 0.0793 |
| COCCOCCOCCOCCOCCOC(=O)NC(C(=O)NC(Cc1ccccc1)C(O)CN(Cc1ccc(-c2ccccn2)cc1)NC(=O)C(NC(=O)OC)C(C)(C)C)C(C)(C)C (stereo not shown) | 0.307 |
| COCCOCCOCCOCCOCCOCCOC(=O)NC(C(=O)NC(Cc1ccccc1)C(O)CN(Cc1ccc(-c2ccccn2)cc1)NC(=O)C(NC(=O)OC)C(C)(C)C)C(C)(C)C (stereo not shown) | 0.451 |

----------
target of assay: hERG (Homo sapiens (Human), UniProt Q12809)
Sequence (Q12809 whole entry): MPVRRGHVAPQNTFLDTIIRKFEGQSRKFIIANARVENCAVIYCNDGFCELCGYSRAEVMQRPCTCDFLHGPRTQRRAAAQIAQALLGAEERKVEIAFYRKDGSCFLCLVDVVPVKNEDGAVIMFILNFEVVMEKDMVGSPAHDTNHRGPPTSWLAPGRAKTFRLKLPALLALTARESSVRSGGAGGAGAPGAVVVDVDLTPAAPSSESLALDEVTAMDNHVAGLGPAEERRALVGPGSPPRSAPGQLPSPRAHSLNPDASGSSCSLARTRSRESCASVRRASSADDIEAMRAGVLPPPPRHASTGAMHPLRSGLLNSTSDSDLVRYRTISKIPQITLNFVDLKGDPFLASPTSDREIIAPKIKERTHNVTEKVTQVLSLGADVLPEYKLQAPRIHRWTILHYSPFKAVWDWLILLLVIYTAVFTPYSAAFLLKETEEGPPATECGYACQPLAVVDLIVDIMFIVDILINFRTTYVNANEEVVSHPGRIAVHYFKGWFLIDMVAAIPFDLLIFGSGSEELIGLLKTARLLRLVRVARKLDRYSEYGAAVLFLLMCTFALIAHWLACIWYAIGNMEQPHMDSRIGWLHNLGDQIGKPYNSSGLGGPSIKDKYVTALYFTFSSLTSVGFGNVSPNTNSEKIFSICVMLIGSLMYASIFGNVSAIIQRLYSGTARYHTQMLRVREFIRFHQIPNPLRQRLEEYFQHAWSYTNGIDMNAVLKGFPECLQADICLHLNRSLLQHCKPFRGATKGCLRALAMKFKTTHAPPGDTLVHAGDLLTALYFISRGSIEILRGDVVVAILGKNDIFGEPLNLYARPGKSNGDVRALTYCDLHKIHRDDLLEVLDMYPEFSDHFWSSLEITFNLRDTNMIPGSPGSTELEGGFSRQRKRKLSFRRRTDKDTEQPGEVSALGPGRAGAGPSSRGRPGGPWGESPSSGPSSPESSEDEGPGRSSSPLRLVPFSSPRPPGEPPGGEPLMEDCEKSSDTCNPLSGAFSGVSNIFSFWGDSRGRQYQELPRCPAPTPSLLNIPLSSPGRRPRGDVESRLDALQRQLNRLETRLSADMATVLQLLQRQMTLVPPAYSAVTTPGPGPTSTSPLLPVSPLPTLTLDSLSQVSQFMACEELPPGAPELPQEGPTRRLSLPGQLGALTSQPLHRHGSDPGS
protocol text: hERG current (IKr) in HEK-293 cells, whole-cell patch clamp
Type: cell-based
condition notes: human, HEK-293 cells stably expressing hERG; 100 μM; 0.1 Hz; HEK-293 cells; read-out: Mean % inhibition ± SEM (Block of hERG at 0.1 Hz)
endpoint: inhibition at 100 µM (%)

| compound | readout unit | observed value |
| --- | --- | --- |
| COCCOCCOCCOC(=O)NC(C(=O)NC(Cc1ccccc1)C(O)CN(Cc1ccc(-c2ccccn2)cc1)NC(=O)C(NC(=O)OC)C(C)(C)C)C(C)(C)C (centres unmarked) | % | 53.1 |
| COC(=O)N[C@H](C(=O)N[C@@H](Cc1ccccc1)[C@@H](O)CN(Cc1ccc(-c2ccccn2)cc1)NC(=O)[C@@H](NC(=O)OC)C(C)(C)C)C(C)(C)C [Atazanavir, reference compound] | % | 60.5 |

----------
Test system: cynomolgus monkey hepatocytes
protocol text: Metabolic stability in cynomolgus monkey hepatocytes
Assay type: in vitro ADME
condition notes: 0.1 uM
endpoint: CLint ± SEM (μL/min/10^6 cells)

| molecule | endpoint | readout unit | observed value |
| --- | --- | --- | --- |
| COCCOC(=O)NC(C(=O)NC(Cc1ccccc1)C(O)CN(Cc1ccc(-c2ccccn2)cc1)NC(=O)C(NC(=O)OC)C(C)(C)C)C(C)(C)C (stereo not shown) | CLint ± SEM | μL/min/10^6 cells | 70.3 |
| COCCOCCOCCOC(=O)NC(C(=O)NC(Cc1ccccc1)C(O)CN(Cc1ccc(-c2ccccn2)cc1)NC(=O)C(NC(=O)OC)C(C)(C)C)C(C)(C)C (stereo not shown) | CLint ± SEM | μL/min/10^6 cells | 21.0 |
| COCCOCCOCCOc1ccc(C[C@H](NC(=O)O[C@H]2CO[C@H]3OCC[C@H]32)C(O)CN(CC(C)C)S(=O)(=O)c2ccc(N)cc2)cc1 (stereo partly shown) | CLint ± SEM | μL/min/10^6 cells | 8.53 |
| COCCOCCOCCOCCOCCNc1ccc(S(=O)(=O)N(CC(C)C)CC(O)[C@H](Cc2ccccc2)NC(=O)O[C@H]2CO[C@H]3OCC[C@H]32)cc1 (stereo partly shown) | CLint ± SEM | μL/min/10^6 cells | 26.5 |
| COCCOCCOCCOCCOCCOCCOC(=O)NC(C(=O)NC(Cc1ccccc1)C(O)CN(Cc1ccc(-c2ccccn2)cc1)NC(=O)C(NC(=O)OC)C(C)(C)C)C(C)(C)C (stereo not shown) | CLint ± SEM | μL/min/10^6 cells | 0.245 |
| COCCOCCOCCOCCOCCOC(=O)NC(C(=O)NC(Cc1ccccc1)C(O)CN(Cc1ccc(-c2ccccn2)cc1)NC(=O)C(NC(=O)OC)C(C)(C)C)C(C)(C)C (stereo not shown) | CLint ± SEM | μL/min/10^6 cells | 13.8 |
| COCCOCCOCCOCCOCCOCCOCCNc1ccc(S(=O)(=O)N(CC(C)C)CC(O)[C@H](Cc2ccccc2)NC(=O)O[C@H]2CO[C@H]3OCC[C@H]32)cc1 (stereo partly shown) | CLint ± SEM | μL/min/10^6 cells | 0.286 |

----------
protocol text: Plasma protein binding by equilibrium dialysis, rat plasma
Assay type: in vitro ADME
condition notes: read-out: Rat Plasma Protein Binding Fu ± SD
endpoint: fraction unbound at 2 h, 5 μM

| molecule | observed value |
| --- | --- |
| COC(=O)N[C@H](C(=O)N[C@@H](Cc1ccccc1)[C@@H](O)CN(Cc1ccc(-c2ccccn2)cc1)NC(=O)[C@@H](NC(=O)OC)C(C)(C)C)C(C)(C)C [Atazanavir, reference compound] | 0.079 |
| COCCOCCOCCOC(=O)NC(C(=O)NC(Cc1ccccc1)C(O)CN(Cc1ccc(-c2ccccn2)cc1)NC(=O)C(NC(=O)OC)C(C)(C)C)C(C)(C)C (centres unmarked) | 0.138 |

----------
Reported inhibition at 10 µM by item:
target of assay: hERG (Homo sapiens (Human), UniProt Q12809)
protocol text: hERG current (IKr) in HEK-293 cells, whole-cell patch clamp
Assay type: cell-based
condition notes: human, HEK-293 cells stably expressing hERG; 10 μM; 0.1 Hz; HEK-293 cells; read-out: Mean % inhibition ± SEM (Block of hERG at 0.1 Hz)
endpoint: inhibition at 10 µM (%)

| molecule | endpoint | observed value |
| --- | --- | --- |
| COC(=O)N[C@H](C(=O)N[C@@H](Cc1ccccc1)[C@@H](O)CN(Cc1ccc(-c2ccccn2)cc1)NC(=O)[C@@H](NC(=O)OC)C(C)(C)C)C(C)(C)C [Atazanavir, reference compound] | inhibition at 10 µM | 15.6 |
| COCCOCCOCCOC(=O)NC(C(=O)NC(Cc1ccccc1)C(O)CN(Cc1ccc(-c2ccccn2)cc1)NC(=O)C(NC(=O)OC)C(C)(C)C)C(C)(C)C (centres unmarked) [mono-mPEG3-Atazanavir] | inhibition at 10 µM | 5.4 |

----------
System: PBMCs
protocol text: PBMC macromolecule synthesis (tritiated precursor incorporation)
Assay type: cell-based, human
condition notes: DNA synthesis
endpoint: Thymidine Incorporation (PBMC) TC50 (µM)

| compound | reported relation | observed value |
| --- | --- | --- |
| COCCOCCOCCOC(=O)NC(C(=O)NC(Cc1ccccc1)C(O)CN(Cc1ccc(-c2ccccn2)cc1)NC(=O)C(NC(=O)OC)C(C)(C)C)C(C)(C)C (stereo not shown) | = | 36.6 |
| COCCOCCOCCOc1ccc(C[C@H](NC(=O)O[C@H]2CO[C@H]3OCC[C@H]32)C(O)CN(CC(C)C)S(=O)(=O)c2ccc(N)cc2)cc1 (stereo partly shown) | = | 109.6 |
| COC(=O)N[C@H](C(=O)N[C@@H](Cc1ccccc1)[C@@H](O)CN(Cc1ccc(-c2ccccn2)cc1)NC(=O)[C@@H](NC(=O)OC)C(C)(C)C)C(C)(C)C [Atazanavir, reference compound] | = | 81.1 |
| CC(C)CN(C[C@@H](O)[C@H](Cc1ccccc1)NC(=O)O[C@H]1CO[C@H]2OCC[C@H]21)S(=O)(=O)c1ccc(N)cc1 [Darunavir, reference compound] | = | 184.3 |
| COCCOCCOCCOCCOCCOc1ccc(C[C@H](NC(=O)O[C@H]2CO[C@H]3OCC[C@H]32)C(O)CN(CC(C)C)S(=O)(=O)c2ccc(N)cc2)cc1 (stereo partly shown) | > | 400.0 |
| COCCOCCOCCOCCOCCNc1ccc(S(=O)(=O)N(CC(C)C)CC(O)[C@H](Cc2ccccc2)NC(=O)O[C@H]2CO[C@H]3OCC[C@H]32)cc1 (stereo partly shown) | = | 41.3 |
